# Tested on: barnyardgrass (Echinochloa oryzicola Vasing.)
# Assay Text: Test Example 1: herbicidal effects, paddy-field pot test
# Assay type: in vivo
# Cond: chemical dosage 10 g/a; wettable powder applied 3 days after transplanting; judged after 25 days
Measurement Type: Herbicidal effects Barnyard grass

Use these answered entries as a reference point.
Cc1cc(C)c(C2CC2)c(Oc2nnc(Cl)cc2O)c1
0 (Growth inhibition rate; 0 to 10%)
Oc1cc(Cl)nnc1Oc1ccccc1C1CC1
2 (Growth inhibition rate; 31 to 50%)
Oc1cc(Cl)nnc1Oc1c(F)cccc1C1CC1
3 (Growth inhibition rate; 51 to 70%)
COc1cccc(C2CC2)c1Oc1nnc(Cl)cc1O
3 (Growth inhibition rate; 51 to 70%)

Each of the following entries comes with a recorded value; kindly state Herbicidal effects Barnyard grass for each.
1. Cc1ccc(Oc2nnc(Cl)cc2O)c(C2CC2)c1
2. CCc1cccc(Br)c1Oc1nnc(Cl)cc1O

1. 2 (Growth inhibition rate; 31 to 50%)
2. 3 (Growth inhibition rate; 51 to 70%)

###

For each record, write down the corresponding melting point.

Record excerpt, results attached:
Cc1ccccc1Oc1nnc(Cl)cc1OC(=O)c1ccccc1C
91 to 93 °C
Oc1cc(Cl)nnc1Oc1cccc(C(F)(F)F)c1Cl
170 to 200 °C
CON=C(C)c1ccc(Oc2nnc(Cl)cc2O)c(C)c1
189 to 192 °C

The following molecules each have a reported value; give each one's melting point.
1. CCSc1cc(Oc2nnc(Cl)cc2O)c(Br)cc1Br
2. COc1ccc(Cl)cc1Oc1nnc(Cl)cc1O

1. 225 to 228 °C
2. 143 to 155 °C

###

# System: barnyardgrass (Echinochloa oryzicola Vasing.)
# Assay Text: Test Example 1: herbicidal effects, paddy-field pot test
# Type: in vivo
# Cond: chemical dosage 10 g/a; wettable powder applied 3 days after transplanting; judged after 25 days
# Procedure: A paddy soil was filled in 1/10,000 are pot, and seeds of barnyardgrass (Echinochloa oryzicola Vasing.), Scirpus joncoides and annual broad-leaved weeds (Lindernia spp., Rotala indica) which are awaken from dormancy were mixed at the surface layer of 1 cm. Also, tuber of Cyperus serotinus which is germinated was planted, and further seedlings of paddy-field rice at 2.2-leaf stage were transplanted, and they were grown under the flooded condition in a greenhouse. […]
Measurement Type: Herbicidal effects Barnyard grass

Cc1ccc(S(=O)(=O)Oc2cc(Cl)nnc2Oc2ccccc2C2CC2)cc1
2 (Growth inhibition rate; 31 to 50%)
Oc1cc(Cl)nnc1Oc1cccc2occc12
1 (Growth inhibition rate; 11 to 30%)

Hi team, please reply with Herbicidal effects Barnyard grass for each item in this list.
1. CCCS(=O)(=O)Oc1cc(Cl)nnc1Oc1cccc2c1CCC2
2. COC(=O)Oc1cc(Cl)nnc1Oc1ccccc1C1CC1
3. Cc1ccc2c(c1Oc1nnc(Cl)cc1O)OCC2

1. 2 (Growth inhibition rate; 31 to 50%)
2. 3 (Growth inhibition rate; 51 to 70%)
3. 2 (Growth inhibition rate; 31 to 50%)

###

# Tested on: Scirpus joncoides
# Assay Text: Test Example 1: herbicidal effects, paddy-field pot test
# Type: in vivo
# Cond: chemical dosage 10 g/a; wettable powder applied 3 days after transplanting; judged after 25 days
Measurement Type: Herbicidal effects Scirpus joncoides

Please review the following examples before continuing.
Cc1ccccc1Oc1nnc(Br)cc1O
2 (Growth inhibition rate; 31 to 50%)
Cc1ccc(C2CC2)c(Oc2nnc(Cl)cc2O)c1
5 (Growth inhibition rate; 91 to 100%)
Cc1cccc(I)c1Oc1nnc(Cl)cc1O
5 (Growth inhibition rate; 91 to 100%)

# batch: return Herbicidal effects Scirpus joncoides for each of the 2 compounds below
1. CCCS(=O)(=O)Oc1cc(Cl)nnc1Oc1ccccc1C
2. CCc1cccc(C2CC2)c1Oc1nnc(Cl)cc1O

["3 (Growth inhibition rate; 51 to 70%)", "5 (Growth inhibition rate; 91 to 100%)"]

Attribution: patent US7964531B2
